// data source = patent US20210355194A1

- Target desc: COVID S1 RBM Fc fusion (Antigen 2) (SARS-CoV-2, UniProt P0DTC2 437-508)
- Protocol description: phage ELISA
ELISA fold over background values, listed per item
Recorded metric: ELISA fold over background

- Binder: "SARS-CoV-2 variant 1-48 (antibody, V domains shown) VH: EVQLLESGGGLVQPGGSLRLSCAASGFTFSSHAMYWVRQAPGKGLEWVSAISGSAGSTYYADSVKGRFTISRDNSKNTLYLQMNSLRAEDTAVYYCAHDTKDFWSGYCIFDPWGQGTLVTVSS VL: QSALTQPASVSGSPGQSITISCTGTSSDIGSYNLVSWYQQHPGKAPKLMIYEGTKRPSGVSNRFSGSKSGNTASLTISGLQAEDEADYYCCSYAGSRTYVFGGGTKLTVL"
  Result: "0.8 fold"
- Binder: "SARS-CoV-2 variant 1-30 (antibody, V domains shown) VH: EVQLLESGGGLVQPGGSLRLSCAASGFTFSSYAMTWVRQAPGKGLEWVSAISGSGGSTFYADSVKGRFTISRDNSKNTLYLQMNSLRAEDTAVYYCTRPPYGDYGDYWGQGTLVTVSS VL: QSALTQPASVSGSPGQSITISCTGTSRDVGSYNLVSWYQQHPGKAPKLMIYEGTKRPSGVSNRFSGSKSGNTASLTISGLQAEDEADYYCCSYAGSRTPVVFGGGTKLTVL"
  Result: "1.4 fold"
- Binder: "SARS-CoV-2 variant 1-28 (antibody, V domains shown) VH: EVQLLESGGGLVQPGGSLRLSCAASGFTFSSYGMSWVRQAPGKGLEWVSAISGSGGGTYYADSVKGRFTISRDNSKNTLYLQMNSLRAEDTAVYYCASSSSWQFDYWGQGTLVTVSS VL: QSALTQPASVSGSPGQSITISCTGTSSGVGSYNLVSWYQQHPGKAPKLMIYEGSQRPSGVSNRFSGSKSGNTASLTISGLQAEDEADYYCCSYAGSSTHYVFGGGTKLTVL"
  Result: "1.2 fold"
- Binder: "SARS-CoV-2 variant 1-4 (antibody, V domains shown) VH: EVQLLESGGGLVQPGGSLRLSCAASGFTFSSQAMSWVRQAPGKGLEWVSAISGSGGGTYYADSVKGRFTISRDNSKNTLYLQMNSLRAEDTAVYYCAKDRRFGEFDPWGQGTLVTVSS VL: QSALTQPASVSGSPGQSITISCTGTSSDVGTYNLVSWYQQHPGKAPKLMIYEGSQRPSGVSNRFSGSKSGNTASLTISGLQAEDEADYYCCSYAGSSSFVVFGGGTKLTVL"
  Result: "1.1 fold"
